Each recorded value in this set is attributed to PubChem BioAssay (NCI).

tested on: NCI-H226 lung; test: NCI tumour cell line growth inhibition, 48 h
Where a SMILES comes first, the peptide text is derived from it.
parameter: TGI

As a guide, the following entries are already answered.
| compound | reported.value |
| --- | --- |
| CC(C)C[C@H](NC(=O)[C@H](Cc1ccccc1)n1ccc(N2CCCCC2)cc1=O)B(O)O | 0.423 µM |
| C/C(=N\N=C(N)N)C(CN(CC(C)C)CC(C)C)C(=O)Nc1ccc(C)cc1C (centres undefined) | > 100 µM |
| CNc1ncnc(Sc2nc(N)nc3nc[nH]c23)c1[N+](=O)[O-] | > 100 µM |
| OC1(c2ccccc2)CC2CCC(C1)N2CCc1ccccc1 (centres undefined) | > 100 µM |
| CC(C)C[C@@H](NC(=O)[C@@H](Cc1ccccc1)NC(=O)c1cnccn1)B1O[C@H]2[C@H](O)[C@@H](C(=O)NCCCC[C@@H]3NC(=O)[C@@H](Cc4ccccc4)NC(=O)[C@H](CC(=O)O)NC(=O)CNC(=O)[C@H](CCCN=C(N)N)NC3=O)O[C@@H](CN)[C@H]2O1 | 0.0077 µM |
| O=C1NC(=O)C(C(=O)C(=O)Nc2ccc(Br)cc2)C(=O)N1 | > 100 µM |
| NCc1ccc(-c2ccc(-c3ccc(-c4ccc(CN)s4)s3)s2)s1 | > 100 µM |
| CN1C2CCC1CC(OC(c1ccccc1)c1ccccc1)C2 (centres undefined) | 72.6 µM |

(Q) Look up TGI for this compound: CCC1(C)C=Cc2c(cc(OC)c3c(=O)c4ccccc4n(C)c23)O1 (centres undefined)
(A) > 10 µM

(Q) Same question, COC(=O)c1c[nH]cc1CCc1c[nH]cc1C(=O)OC this time
(A) > 100 µM

(Q) Try this compound next: C[C@]12CC[C@@H]3c4ccc(O)cc4CC[C@H]3[C@@H]1C/C(=C\c1ccc([N+](=O)[O-])cc1)C2=O
(A) > 100 µM

(Q) Now the compound CC1NC(=O)CNC(=O)CNC(=O)C(Cc2ccc(O)cc2)NC(=O)C(C(C)C)NC(=O)C(C)NC1=O (centres undefined) (cyclo(GGAAVY); configuration not given here)
(A) > 100 µM

(Q) # iterate: COc1c(CC=C(C)C)c(O)c(C(CC(C)C)c2c(O)c(C(C)=O)c(O)c3c2OC(C(C)(C)O)C3)c(O)c1C(C)=O (centres undefined)
(A) > 12.5 µM

(Q) O=C(NN=C1CCN(Cc2ccccc2)CC1)C(O)(c1ccccc1)c1ccccc1 ?
(A) > 100 µM

(Q) Next record, please: O=c1c(O)c(-c2ccc(O)cc2O)oc2cc(O)cc(O)c12
(A) > 100 µM

====

test system: RXF 393 renal; assay: NCI tumour cell line growth inhibition, 48 h
parameter: TGI

Illustrative cases are given below, each with its answer.
| molecule | TGI |
| --- | --- |
| COC(=O)C1(C)C=C(Nc2ccccc2)C(=O)N1c1ccccc1 (stereo not drawn) | > 100 µM |
| CCOC(=O)CC(=O)NC1CC2CCC1(C)C2(C)C (stereo not drawn) | > 100 µM |

Please look at the following molecule next.
(Q) TGI lookup needed for C/C(CN1C(=O)c2ccccc2C1=O)=N\NS(=O)(=O)c1cccc([N+](=O)[O-])c1 , thanks.
(A) > 100 µM

====

Form field: TGI (one value per entry).
test system: OVCAR-5 ovarian; experiment: NCI tumour cell line growth inhibition, 48 h

Study these solved cases before continuing.
| compound | TGI |
| --- | --- |
| COC(CN(C)C(=O)C(C)NC(=O)c1ccccc1)OC (centres undefined) | > 100 µM |
| COc1cccc(-c2nn(-c3ccccc3)cc2-c2ccnc(NCCNS(=O)(=O)c3ccc(Cl)cc3)c2)c1 | > 100 µM |
| CCN(CC)c1ccc(/C=C(\C#N)c2nc(N)nc(N3N=C(C)CC3(C)C)n2)cc1 | 93.9 µM |
| C[C@]12CC[C@@H]3c4ccc(O)cc4CC[C@H]3[C@@H]1C/C(=C\c1ccc([N+](=O)[O-])cc1)C2=O | > 100 µM |
| O=C(O)c1ccc(S(=O)(=O)c2ccccc2)c([N+](=O)[O-])c1 | > 100 µM |
| NC(N)=NCCCC(N=c1c2ccccc2n(O)c2ccccc12)C(=O)O (centres undefined) | > 100 µM |
| Cc1ccc(NC(c2ccccc2)c2ccc3cccnc3c2O)cc1 (centres undefined) | 22.2 µM |
| CN(C)CCCNc1c(O)c2c(c(O)c1Cl)C(=O)C=CC2=O | 3 µM |

(Q) Look up TGI for this compound: Clc1ccc(-c2nn3c(CCCCCCCCc4nnc5sc(-c6ccc(Cl)cc6)nn45)nnc3s2)cc1
(A) > 100 µM

====

tested on: HCT-15 colon; assay: NCI tumour cell line growth inhibition, 48 h
parameter: GI50

| molecule | GI50 |
| --- | --- |
| O=C1c2ccccc2-c2c1c1ccccc1c(=O)n2CCCNCCCn1c2c(c3ccccc3c1=O)C(=O)c1ccccc1-2 | 1.03 µM |
| Cn1c(C(N)=O)cc2c1-c1nc(Nc3ccccc3)ncc1CCC2 | 3.4 µM |
| CC/C=C\C[C@H](O)C/C=C1/C(=O)C=C[C@@H]1C/C=C\CCCC(=O)NC(C)C | 2.02 µM |
| C=C1C(=O)O[C@@H]2C[C@@H]1CC[C@]1(C)O[C@H]1CC[C@@]1(C)O[C@@H]1CC[C@@]2(C)O | 29.2 µM |
| CN(C)/[N+]([O-])=N/Oc1cc(Nc2cccc(C(=O)O)c2)c([N+](=O)[O-])cc1[N+](=O)[O-] | > 100 µM |
| COC(=O)/C=C/c1cc(O)c2c(c1)C(C(=O)OC)C(c1ccc(O)c(O)c1)O2 (centres undefined) | 0.0991 µM |
| Oc1c(CN2CCC(N3CCOCC3)CC2)cc(Cc2cc(CN3CCC(N4CCOCC4)CC3)c(O)c3ncccc23)c2cccnc12 | 0.633 µM |
| CN(C)CCNC(=O)c1ccc(Nc2nc3ccccc3c3occc23)cc1 | 2.12 µM |

We next turn to a different molecule, shown below.
(Q) Bench note: what GI50 did N#CC1=C(N)Oc2cc3c(cc2C1c1cccs1)OCO3 (centres undefined) show?
(A) 0.486 µM

====

system: A498 renal; test: NCI tumour cell line growth inhibition, 48 h
parameter: TGI

(Q) Notebook: pull reported TGI for A498 renal, entry NCc1ccc(-c2ccc(-c3ccc(-c4ccc(CN)s4)s3)s2)s1
(A) > 100 µM

(Q) Follow-up entry: CCOc1c2ccsc2c(OCC)c2ccsc12
(A) > 100 µM

(Q) One more molecule: CCOC(=O)C1C(=O)CC(O)(OCC)C(C(=O)OCC)C1c1ccc(OC)cc1 (configuration not stated)
(A) > 100 µM

(Q) What do we get for COc1ccc2c(c1)C(N)CC2=O (configuration not stated) ?
(A) > 100 µM

(Q) Param item: COc1cc(NS(C)(=O)=O)ccc1NCc1cnc2ccc3[nH]c(C)ccc3c12
(A) 42 µM

(Q) Now consider CCc1ccc(-c2nnc(COc3ccc(-c4nc5ccc(C)cc5[nH]4)cc3OC)o2)cc1 .
(A) 4.72 µM

====

Item-by-item account of TGI
system: HOP-92 NSCLC; experiment: NCI tumour cell line growth inhibition, 48 h

Some compounds with known TGI results, for comparison:
| compound | reported.value |
| --- | --- |
| c1ccc(N=C2c3ccccc3CN2c2ccccc2)cc1 | > 100 µM |
| CC(=O)/C(C=Nc1c(C)n(C)n(-c2ccccc2)c1=O)=C(/C)O | > 100 µM |
| O=C(O)c1ccc(S(=O)(=O)c2ccccc2)c([N+](=O)[O-])c1 | > 100 µM |
| O=C(O)c1ccc(NC(=O)C2C(=O)C(=O)N(c3ccc(C(=O)O)cc3)C2=O)cc1 (stereo not given) | > 100 µM |
| COc1ccc2[nH]c(CCNC(=O)c3cc([N+](=O)[O-])cc([N+](=O)[O-])c3)cc2c1 | 93.8 µM |

We now examine a further compound.
(Q) I am curious: what TGI value has been reported for COc1ccc(OC)c(C2CCc3nc4nc(N)nc(N)c4cc3C2)c1 (stereo not given) ?
(A) 5.76 µM

====

test system: HOP-92 NSCLC; experiment: NCI tumour cell line growth inhibition, 48 h
parameter: TGI

| compound | TGI |
| --- | --- |
| CCN1C(=O)C/C(=C\C(C)=O)Nc2ccccc21 | > 100 µM |
| Cc1ccc(NC(c2ccccc2)c2ccc3cccnc3c2O)cc1 (configuration not stated) | 16 µM |
| COC(CN(C)C(=O)C(C)NC(=O)c1ccccc1)OC (configuration not stated) | > 100 µM |

(Q) Please look up its TGI: CC1=CC=NN2C(=O)[C@H](C)C2C1 (some centres not stated)
(A) > 100 µM

(Q) Same for O=P(c1ccccc1)(c1ccccc1)C1CC=C(c2ccccc2)C2(CCCC2)C1 (configuration not stated)
(A) 67.5 µM

(Q) // same read-out, input: CCOP(=O)(OCC)C(NC(=O)OCC(Cl)(Cl)Cl)n1nnc(C(=O)OC)c1C(=O)OC (configuration not stated)
(A) > 100 µM

(Q) Try C/C(=N/NC(=S)Nc1ccccc1Cl)c1ccccn1 next.
(A) 22.7 µM
